# TEST_SYSTEM: Vasopressin V2 receptor (Homo sapiens, UniProt P30518)
# Sequence (P30518 whole entry): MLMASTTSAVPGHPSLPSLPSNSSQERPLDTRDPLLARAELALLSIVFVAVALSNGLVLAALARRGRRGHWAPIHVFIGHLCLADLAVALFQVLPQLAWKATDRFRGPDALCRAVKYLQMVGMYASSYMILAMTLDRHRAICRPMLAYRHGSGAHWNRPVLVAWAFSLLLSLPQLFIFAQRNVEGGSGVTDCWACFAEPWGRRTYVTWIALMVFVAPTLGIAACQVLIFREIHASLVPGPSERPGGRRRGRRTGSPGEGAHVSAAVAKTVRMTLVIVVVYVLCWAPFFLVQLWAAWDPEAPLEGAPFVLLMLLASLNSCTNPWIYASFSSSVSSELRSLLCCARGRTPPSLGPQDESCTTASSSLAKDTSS
# TEST: In vitro antagonist activity was measured by inhibition of vasopressin-stimulated adenylate cyclase in renal medullary preparation in human
VALUE_TYPE: Ki (nM)
Expressed in nM, but write only the number.

Q. Please look up its Ki: CCOc1ccc(C[C@H]2NC(=O)CC3(CCCCC3)CCCC(C(=O)N[C@@H](CCCN=C(N)N)C(=O)N[C@H](CCCN=C(N)N)C(N)=O)NC(=O)[C@H](CC(N)=O)NC(=O)[C@H](C(C)C)NC(=O)[C@H](Cc3ccccc3)NC2=O)cc1 (some centres undefined)
A. 3.9

Q. Item CCOc1ccc(C[C@H]2NC(=O)CC3(CCCCC3)SSCC(C(=O)N[C@@H](CCCN=C(N)N)C(N)=O)NC(=O)[C@H](CC(N)=O)NC(=O)[C@H](C(C)C)NC(=O)[C@H](Cc3ccccc3)NC2=O)cc1 (some centres undefined) has what recorded Ki?
A. 1.5

Q. Param item = CCOc1ccc(C[C@H]2NC(=O)CC3(CCCCC3)SSCC(C(=O)N[C@@H](CCCN=C(N)N)C(=O)N[C@H](CCCN=C(N)N)C(N)=O)NC(=O)[C@H](CC(N)=O)NC(=O)[C@H](C(C)C)NC(=O)[C@H](Cc3ccccc3)NC2=O)cc1 (some centres undefined) ; retrieve measured Ki.
A. 2.4

Q. Would you mind telling me what Ki value was observed for "CCOc1ccc(C[C@H]2NC(=O)CC3(CCCCC3)CCC[C@@H](C(=O)N3CCC[C@H]3C(=O)N[C@@H](CCCN=C(N)N)C(N)=O)NC(=O)[C@H](CC(N)=O)NC(=O)[C@H](C(C)C)NC(=O)[C@H](Cc3ccccc3)NC2=O)cc1" ?
A. 2.7
